Target: NS3 (West Nile virus)
Sequence (K4FQI5 whole entry): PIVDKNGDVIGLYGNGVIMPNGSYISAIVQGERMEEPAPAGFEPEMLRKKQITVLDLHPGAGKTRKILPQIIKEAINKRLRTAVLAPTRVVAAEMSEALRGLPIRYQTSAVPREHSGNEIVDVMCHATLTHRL
Assay: Functional biochemical assay to identify treatments for viral infectious disease that targets West Nile NS2B-NS3 protease. Utilizing a direct enzyme activity measurement method, reading the fluorescence intensity is used to characterize the relative potency of inhibitors as IC50.
RECORDED METRIC: IC50 (µM)

chem_smiles=CNC(=O)[C@H](Nc1ccc2c(c1)CNC2)c1cc(Cl)cc2[nH]ncc12 target_system="NS3 (West Nile virus)" readout_unit=µM comparison_operator== reading=0.677
chem_smiles=NCc1cccc(NC(=O)[C@H](NC(=O)OCc2ccccc2)c2ccc(Br)c(Cl)c2)c1 target_system="NS3 (West Nile virus)" readout_unit=µM comparison_operator== reading=6.57
chem_smiles=O=C(Nc1cc2c(c(-c3ccnnc3)c1)CNC2)c1cc(Cl)cc2[nH]ncc12 target_system="NS3 (West Nile virus)" readout_unit=µM comparison_operator== reading=3.06
chem_smiles=Nc1nc2c(Br)cc(C(=O)Nc3ccc4c(c3)CNC4)cc2s1 target_system="NS3 (West Nile virus)" readout_unit=µM comparison_operator=> reading=99.5
chem_smiles=CC(C)n1ncc2c(C(=O)Nc3ccc4c(c3)CNC4)cc(Cl)cc21 target_system="NS3 (West Nile virus)" readout_unit=µM comparison_operator== reading=18.2
chem_smiles=NCCc1ccc(NC(=O)c2cc(Cl)cc(NC(=O)OCc3ccccc3)c2)cc1 target_system="NS3 (West Nile virus)" readout_unit=µM comparison_operator== reading=16
chem_smiles=CC(C)NC(=O)[C@H](Nc1ccc2c(c1)CN(C)C2)c1cc(Cl)cc2[nH]ncc12 target_system="NS3 (West Nile virus)" readout_unit=µM comparison_operator== reading=1.67
chem_smiles=CC(C)CNC(=O)c1cc(Cl)c(F)cc1NS(=O)(=O)c1ccc(Oc2ccccc2Cl)cc1 target_system="NS3 (West Nile virus)" readout_unit=µM comparison_operator== reading=24.9
chem_smiles=NCCc1cccc(NC(=O)c2cc(Cl)cc(NC(=O)OCc3ccccc3)c2)c1 target_system="NS3 (West Nile virus)" readout_unit=µM comparison_operator== reading=23.6
chem_smiles=O=C(Nc1ccc2c(c1)CNC2)c1cc(Cl)cc(C2CC2)c1 target_system="NS3 (West Nile virus)" readout_unit=µM comparison_operator== reading=25.5

Data credit: ChEMBL document CHEMBL5604061
